Data origin: the RNAGym collection of RNA variant scans (doi:10.7554/elife.90254)

Below, each entry is listed alongside its reported self-cleavage.
B1: OR4K15 (parent)
chain: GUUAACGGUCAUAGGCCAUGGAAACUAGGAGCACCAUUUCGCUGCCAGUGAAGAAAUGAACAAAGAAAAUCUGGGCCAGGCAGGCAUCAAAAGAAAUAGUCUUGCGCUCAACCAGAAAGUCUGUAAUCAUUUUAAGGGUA

Variants of: B1
TEST_DESCRIPTION: self-cleavage, relative activity (ratio to wild type); higher = more cleavage; in vitro, sequencing; the parent is a self-cleaving ribozyme
Lab note: jot the number down without any unit.

For U3C the variant record lists self-cleavage as 1.1

For G31A U139A the variant record lists self-cleavage as 1.78

For C6U A52G the variant record lists self-cleavage as 0.59

For U131C A140U the variant record lists self-cleavage as 1.59
